Ref: ChEMBL document CHEMBL1765042

Molecular target: UniProt:O95147
Sequence (O95147 whole entry): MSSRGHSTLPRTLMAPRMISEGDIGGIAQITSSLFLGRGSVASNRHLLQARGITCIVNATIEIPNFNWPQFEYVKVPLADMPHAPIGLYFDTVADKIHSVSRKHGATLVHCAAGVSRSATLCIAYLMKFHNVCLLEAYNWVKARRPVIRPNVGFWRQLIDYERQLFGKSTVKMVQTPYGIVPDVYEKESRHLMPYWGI
property_name: IC50

-- ask // fetch IC50; item: O=C(O)c1ccc(/C=N/OCc2ccc(-c3cccc(C(F)(F)P(=O)(O)O)c3)cc2)o1 ; system: UniProt:O95147
-- reply > 400 µM
